meta.source: ChEMBL document CHEMBL3885861

species: Rattus norvegicus; assay: Open TG-GATES - Regimen: Single; type: toxicity, organism-based, Sprague-Dawley; set-up: regimen Single, gender Male, age 6 weeks; settings: in vivo, po, 0 mg/kg, 24 h, tissue Plasma, route gavage, dose level Control
Each entry below lists one item and its recorded PL value.
Quick note: give the figure in mg/dL, leave out the unit.

# example entries with known answers
CC(=O)N1CCN(c2ccc(OCC3COC(Cn4ccnc4)(c4ccc(Cl)cc4Cl)O3)cc2)CC1 (configuration not stated)    147
CC(=O)Nc1ccc2c(c1)Cc1ccccc1-2    132.2
CCN(CC)N=O    150.6

Challenge: Assign PL to the following record: `O=C(O)COc1nn(Cc2ccccc2)c2ccccc12`
Response given: 144.6

Challenge: # return recorded PL for entry `CC[C@@H](CO)NCCN[C@@H](CC)CO`
Response given: 147.2

Challenge: For the compound CC(CCc1ccccc1)NCC(O)c1ccc(O)c(C(N)=O)c1 (configuration not stated) , give its reported PL.
Response given: 150.8

Challenge: Please indicate PL recorded for CC(C)Cc1ccc(C(C)C(=O)O)cc1 (configuration not stated)
Response given: 145.8

---

species: Rattus norvegicus; test: Open TG-GATES - Regimen: Daily Repeat; type: toxicity, organism-based, Sprague-Dawley; set-up: regimen Daily Repeat, gender Male, age 6 weeks; conditions: in vivo, po, 0 mg/kg, […], tissue Plasma, route gavage, dose level Control, time 14 day
List of LDH values.
Give your result in IU/L as a bare value.

Sample records with LDH:
CC[C@@H](CO)NCCN[C@@H](CC)CO    191.2
O=C(O)COc1nn(Cc2ccccc2)c2ccccc12    102.2
CC(=O)N1CCN(c2ccc(OCC3COC(Cn4ccnc4)(c4ccc(Cl)cc4Cl)O3)cc2)CC1 (stereo not drawn)    207.6

Challenge: For CC(N)=O [ACETAMIDE] , write its LDH.
Response given: 170.6

Challenge: Determine its reported LDH: CC(CCc1ccccc1)NCC(O)c1ccc(O)c(C(N)=O)c1 (stereo not drawn)
Response given: 79.4

Challenge: Tell us which LDH value is on record for `CCN(CC)N=O`
Response given: 198.4

Challenge: Please supply the value of reported LDH for the item `CC(=O)Nc1ccc2c(c1)Cc1ccccc1-2`
Response given: 169.6

Challenge: Please give measured LDH of the following entry: CC(C)Cc1ccc(C(C)C(=O)O)cc1 (stereo not drawn)
Response given: 118.4

---

species: Rattus norvegicus; assay: Open TG-GATES - Regimen: Daily Repeat; assay type: toxicity, organism-based, Sprague-Dawley; design: regimen Daily Repeat, gender Male, age 6 weeks; settings: in vivo, po, 0 mg/kg, […], tissue Blood, route gavage, dose level Control, time 7 day
readout.kind: Lym (%)
Please respond with the number in % and leave the unit unwritten.

Solved cases (3 shown):
CC(CCc1ccccc1)NCC(O)c1ccc(O)c(C(N)=O)c1 (stereo not drawn) [LABETALOL]    78.2
CC(=O)Nc1ccc2c(c1)Cc1ccccc1-2 [2-ACETYLAMINOFLUORENE]    82.8
CC[C@@H](CO)NCCN[C@@H](CC)CO [ETHAMBUTOL]    83

Challenge: Hello, please tell me recorded Lym for this one: CC(C)Cc1ccc(C(C)C(=O)O)cc1 (stereo not drawn) [IBUPROFEN]
Response given: 80

Challenge: Consider the compound CC(=O)N1CCN(c2ccc(OCC3COC(Cn4ccnc4)(c4ccc(Cl)cc4Cl)O3)cc2)CC1 (stereo not drawn) [KETOCONAZOLE] and give its recorded Lym.
Response given: 78.4

Challenge: Read the entry CC(N)=O [ACETAMIDE] and write its reported Lym.
Response given: 75.2

Challenge: Using known records, supply Lym for CCN(CC)N=O [N-NITROSODIETHYLAMINE]
Response given: 79.6

Challenge: State its Lym: O=C(O)COc1nn(Cc2ccccc2)c2ccccc12 [BENDAZAC]
Response given: 80.8
